Tested on: MLK3
Conditions: concentration: 1 μM, replicates: in singlicate; n = 1;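 further: KINOMEscan kinase panel screen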
Label not met if %Inh falls below 1%; label met in every other case.

[[record]]
compound_structure = "O=C(Nc1n[nH]c2cc(-c3cccs3)ccc12)C1CC1"
group_label = "not met"

[[record]]
compound_structure = "CCNc1nccc(-c2c(-c3ccc(F)cc3)ncn2C2CCN(C)CC2)n1"
group_label = "not met"

[[record]]
compound_structure = "COc1ccc(C2=C(Nc3cccc(O)c3)C(=O)NC2=O)cc1"
group_label = "not met"

[[record]]
compound_structure = "CC(C)c1nc(-c2ccc(F)c(NS(=O)(=O)c3c(F)cccc3F)c2)c(-c2ccnc(Nc3ccc(N4CCOCC4)nc3)n2)s1"
group_label = "met"

[[record]]
compound_structure = "Cn1cc(-c2ccc3c(c2)CCN3C(=O)Cc2cc(F)cc(F)c2F)c2c(N)ncnc21"
group_label = "met"

[[record]]
compound_structure = "COc1cc(Nc2ccnc3cc(-c4ccncc4)ccc23)cc(OC)c1OC.Cl"
group_label = "met"

[[record]]
compound_structure = "Fc1cc(Cl)ccc1Nc1ccnc2cc(-c3ccc(CN4CCSCC4)o3)ccc12"
group_label = "met"


* * *

Here, each record is paired with measured %Inh data.
Test system: JAK3(JH1domain-catalytic)
Conditions: concentration: 1 μM, replicates: in singlicate; n = 1
PROPERTY MEASURED: %Inh (%)

[[record]]
compound_structure = "CC(C)c1nc(-c2ccc(F)c(NS(=O)(=O)c3c(F)cccc3F)c2)c(-c2ccnc(Nc3ccc(N4CCOCC4)nc3)n2)s1"
observed = 69

[[record]]
compound_structure = "Nc1ncc(-c2cn[nH]c2)c2scc(-c3ccc4c(c3)CCN4C(=O)Cc3ccccc3)c12"
observed = 0

[[record]]
compound_structure = "Cc1ccc(NC(=O)c2ccc(Cl)c(Cl)c2)cc1-c1ccc(C(=O)Nc2ccncc2)cc1"
observed = 0

[[record]]
compound_structure = "Cc1cc(-c2c(-c3ccc(F)cc3)ncn2CCCN2CCOCC2)nc(N)n1"
observed = 0


* * *

Test system: DDR2
Conditions: concentration: 1 μM, replicates: in singlicate; n = 1
PROPERTY MEASURED: %Inh

[[record]]
molecule = "CSc1ccc(NC2=C(c3ccc(Cl)cc3)C(=O)NC2=O)cc1 [SB-317658]"
observed = "5%"

[[record]]
molecule = "COc1cc(Nc2nccc(N3CCC(NS(=O)(=O)c4ccc(NC(C)=O)cc4)CC3)n2)cc(OC)c1OC [GSK1379825]"
observed = "14%"

[[record]]
molecule = "Nc1ncnc2scc(-c3ccc(NC(=O)Cc4cc(F)ccc4F)cc3)c12.O=C(O)C(F)(F)F [SB-731254-M]"
observed = "24%"

[[record]]
molecule = "O=C(Nc1n[nH]c2nc(-c3ccccc3O)ccc12)C1CC1 [SB-711880]"
observed = "0%"

[[record]]
molecule = "Cc1cc(-c2ccnc(Nc3cccc(C#N)c3)n2)cc(C)c1O [GSK1440913]"
observed = "23%"

[[record]]
molecule = "c1ccc(Oc2ccc(Nc3ccnc4cc(-c5ccc(CN6CCCCC6)o5)ccc34)cc2)nc1 [GW567143]"
observed = "35%"

[[record]]
molecule = "Cl.N#CCc1ccc(Nc2nccc(Nc3ccc(Oc4ccccc4)cc3)n2)cc1 [GW639905]"
observed = "5%"

[[record]]
molecule = "CN(c1ccc2c(c1)nc(NCc1ccccc1)n2C)c1ccnc(Nc2ccc(CS(C)(=O)=O)cc2)n1.Cl [GW811603]"
observed = "100%"

[[record]]
molecule = "O=C(Nc1c(F)cccc1F)c1cc(C(=O)c2ccccc2F)c[nH]1 [GSK1326180]"
observed = "13%"

[[record]]
molecule = "CNc1nccc(-c2ccc3c(N)n[nH]c3c2)n1 [GSK2206003]"
observed = "29%"

[[record]]
molecule = "COc1ccc(NC(=O)c2ccoc2)cc1-c1ccc(C(=O)NCC2CC2)cc1 [GW810437]"
observed = "50%"

[[record]]
molecule = "CN(C)CCNS(=O)(=O)c1ccc(-c2ccnc3[nH]ccc23)cc1 [GSK977620]"
observed = "0%"

[[record]]
molecule = "CN(c1ccc(NC(=O)Nc2cccc(Cl)c2)cc1)c1ccnc(N)n1.Cl [GW830707]"
observed = "99.3%"

[[record]]
molecule = "COC(=O)Nc1nc2cc(Oc3ccc(NC(=O)Nc4cccc(SC)c4)cc3)ccc2[nH]1.Cl [GW697999]"
observed = "98.7%"

[[record]]
molecule = "O=C(Nc1n[nH]c2cc(-c3cccs3)ccc12)C1CC1 [SB-731284]"
observed = "23%"

[[record]]
molecule = "O=C(Nc1n[nH]c2nc(-c3cccc(O)c3)ccc12)C1CC1 [SB-711805]"
observed = "20%"

[[record]]
molecule = "CCn1c(-c2nonc2N)nc2c(-c3ccccc3)ncc(OCCCN)c21.O=C(O)C(F)(F)F.O=C(O)C(F)(F)F [GSK260205]"
observed = "31%"

[[record]]
molecule = "Nc1cccc(-c2ccc3c(N)n[nH]c3c2)c1 [GSK2193613]"
observed = "0%"


* * *

Listed here: items and their measured %Inh.
System: ACVRL1
Settings: concentration: 1 μM, replicates: in singlicate; n = 1
PROPERTY MEASURED: %Inh (%)

[[record]]
compound = "O=C(O)C(F)(F)F.O=c1[nH]ccc2nc(N[C@@H]3CCNC3)nc(Nc3cc(Cl)cc(Cl)c3)c12 [GSK2188764]"
study_system = "ACVRL1"
property_measured = "%Inh"
value_unit = "%"
observed = 0

[[record]]
compound = "N#Cc1cnc2cc(-c3cnc(CNCCN4CCOCC4)s3)ccc2c1Nc1ccc(Oc2ccccc2)cc1 [GW664114]"
study_system = "ACVRL1"
property_measured = "%Inh"
value_unit = "%"
observed = 0

[[record]]
compound = "COc1cc(Nc2nccc(N3CCC(NC(=O)Nc4ccc5c(c4)OCO5)C3)n2)cc(OC)c1OC (centres unmarked) [GSK1379766]"
study_system = "ACVRL1"
property_measured = "%Inh"
value_unit = "%"
observed = 0

[[record]]
compound = "CC(C)NCC(Cc1ccccc1)NC(=O)c1cc(Br)c(-c2ccnc3[nH]ccc23)s1.Cl.Cl (centres unmarked) [GSK1383281]"
study_system = "ACVRL1"
property_measured = "%Inh"
value_unit = "%"
observed = 0

[[record]]
compound = "Fc1cc(Cl)ccc1Nc1ccnc2cc(-c3ccc(CN4CCOCC4)o3)ccc12 [GW560109]"
study_system = "ACVRL1"
property_measured = "%Inh"
value_unit = "%"
observed = 65

[[record]]
compound = "CN(C)c1ncnc2nc[nH]c12 [SKF-31736]"
study_system = "ACVRL1"
property_measured = "%Inh"
value_unit = "%"
observed = 0

[[record]]
compound = "Cc1nn2c(=O)cc(N3CCO[C@H](C)C3)nc2n1Cc1cccc(Cl)c1Cl [GSK2373693]"
study_system = "ACVRL1"
property_measured = "%Inh"
value_unit = "%"
observed = 0

[[record]]
compound = "CC(C)c1nc(-c2cccc(NS(=O)(=O)c3c(F)cccc3F)c2)c(-c2ccnc(Nc3ccc(N4CCOCC4)nc3)n2)s1.Cl [GSK1723980]"
study_system = "ACVRL1"
property_measured = "%Inh"
value_unit = "%"
observed = 83


* * *

Test system: HCK
Conditions: concentration: 1 μM, replicates: in singlicate; n = 1
Recorded measurements of %Inh, one per entry
PROPERTY MEASURED: %Inh (%)

[[record]]
compound_structure = "O=C(Nc1c(F)cccc1F)c1cc(C(=O)c2ccccc2F)c[nH]1"
observed = 0

[[record]]
compound_structure = "CCNC(=O)/C=C/c1n[nH]c2cc(Sc3ccccc3C(=O)NC)ccc12"
observed = 7

[[record]]
compound_structure = "O=C(Nc1n[nH]c2nc(-c3ccccc3)ccc12)C1CC1"
observed = 7

[[record]]
compound_structure = "Cc1ccc(NC(=O)c2cccc(N3CCCCC3)c2)cc1-c1ccc(C(=O)NCC2CC2)cc1"
observed = 0

[[record]]
compound_structure = "Cn1cc(-c2ccc3c(c2)CCN3C(=O)Cc2cc(F)cc(C(F)(F)F)c2)c2c(N)ncnc21"
observed = 0


* * *

System: MLK2
Conditions: concentration: 1 μM, replicates: in singlicate; n = 1
Listed here: items and their measured %Inh.
PROPERTY MEASURED: %Inh (%)

[[record]]
compound = "COc1cccc(NC(=O)NCCNc2ccnc(Nc3ccc(F)cc3)n2)c1 [GSK1379879]"
observed = 0

[[record]]
compound = "CSc1ccc(NC2=C(c3ccc(Cl)cc3)C(=O)NC2=O)cc1 [SB-317658]"
observed = 4

[[record]]
compound = "CN(c1ccc(F)c(NC(=O)c2cccc(OC(C)(C)C#N)c2Cl)c1)c1ccc2nc(NC(=O)C3CC3)sc2n1"
observed = 4

[[record]]
compound = "COc1cc(Nc2ccnc3cc(-c4ccncc4)ccc23)cc(OC)c1OC.Cl [GW494610]"
observed = 27

